Origin of values: paper PMC7912740

target: UGT1A1 (Homo sapiens); construct: native enzyme in ultrapooled human liver microsomes (Corning 452161), read by SN-38 glucuronidation; experiment: SN-38 glucuronidation in human liver microsomes, cocktail, LC-MS/MS; type: biochemical; conditions: 0.5 µM SN-38 (probe cocktail set A), 5 mM UDPGA, 10 mM MgCl2, alamethicin, pH 7.4, 37 °C, 60 min; read-out: IC50 (μM) / Yangambin
Sequence (P22309 26-533): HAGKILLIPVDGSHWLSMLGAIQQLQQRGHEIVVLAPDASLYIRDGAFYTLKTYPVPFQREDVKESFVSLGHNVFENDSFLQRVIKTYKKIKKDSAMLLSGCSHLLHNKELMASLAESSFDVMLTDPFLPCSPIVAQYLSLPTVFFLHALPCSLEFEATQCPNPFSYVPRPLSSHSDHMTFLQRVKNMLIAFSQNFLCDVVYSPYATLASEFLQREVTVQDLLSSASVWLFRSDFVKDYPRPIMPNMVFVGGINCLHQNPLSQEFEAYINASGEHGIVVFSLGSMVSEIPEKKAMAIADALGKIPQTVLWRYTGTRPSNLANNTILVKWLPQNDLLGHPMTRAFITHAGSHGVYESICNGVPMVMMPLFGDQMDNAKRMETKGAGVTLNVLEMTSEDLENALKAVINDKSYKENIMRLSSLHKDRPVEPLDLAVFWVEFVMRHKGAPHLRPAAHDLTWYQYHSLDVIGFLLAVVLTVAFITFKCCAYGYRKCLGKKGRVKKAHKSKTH
observation-type: IC50 (µM)
The response must be a number in µM with no trailing unit.

Data point: `COc1cc([C@H]2OC[C@H]3[C@@H]2CO[C@@H]3c2cc(OC)c(OC)c(OC)c2)cc(OC)c1OC` ; IC50 = 29.7

---

Molecular target: UGT1A6 (Homo sapiens, UniProt P19224)
Construct: native enzyme in ultrapooled human liver microsomes (Corning 452161), read by N-acetylserotonin glucuronidation
Sequence (P19224 27-532): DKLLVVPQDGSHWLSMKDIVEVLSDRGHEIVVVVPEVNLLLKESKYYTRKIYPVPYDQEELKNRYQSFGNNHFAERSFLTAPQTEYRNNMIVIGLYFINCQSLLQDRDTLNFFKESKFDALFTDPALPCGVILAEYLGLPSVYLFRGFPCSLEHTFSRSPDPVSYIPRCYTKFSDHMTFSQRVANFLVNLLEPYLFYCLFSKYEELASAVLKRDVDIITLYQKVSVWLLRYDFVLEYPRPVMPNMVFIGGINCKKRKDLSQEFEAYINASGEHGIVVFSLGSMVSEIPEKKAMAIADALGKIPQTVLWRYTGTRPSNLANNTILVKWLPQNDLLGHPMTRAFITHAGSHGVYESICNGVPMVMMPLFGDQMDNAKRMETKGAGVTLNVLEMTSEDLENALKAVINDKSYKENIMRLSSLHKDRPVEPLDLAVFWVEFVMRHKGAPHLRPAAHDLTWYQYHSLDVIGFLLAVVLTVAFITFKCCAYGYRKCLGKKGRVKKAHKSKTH
Assay: N-acetylserotonin glucuronidation in human liver microsomes, cocktail, LC-MS/MS
Assay type: biochemical
Details: 1 µM N-acetylserotonin (probe cocktail set B), 5 mM UDPGA, 10 mM MgCl2, alamethicin, pH 7.4, 37 °C, 60 min; read-out: IC50 (μM) / Epimagnolin A
observation-type: IC50

Recorded IC50 for `COc1cc([C@H]2OC[C@H]3[C@@H]2CO[C@@H]3c2cc(OC)c(OC)c(OC)c2)cc(OC)c1OC` on UGT1A6 (Homo sapiens, UniProt P19224) was > 200 µM

---

Target: UGT1A4 (Homo sapiens)
Construct: native enzyme in ultrapooled human liver microsomes (Corning 452161), read by trifluoperazine N-glucuronidation
Sequence (P22310 29-534): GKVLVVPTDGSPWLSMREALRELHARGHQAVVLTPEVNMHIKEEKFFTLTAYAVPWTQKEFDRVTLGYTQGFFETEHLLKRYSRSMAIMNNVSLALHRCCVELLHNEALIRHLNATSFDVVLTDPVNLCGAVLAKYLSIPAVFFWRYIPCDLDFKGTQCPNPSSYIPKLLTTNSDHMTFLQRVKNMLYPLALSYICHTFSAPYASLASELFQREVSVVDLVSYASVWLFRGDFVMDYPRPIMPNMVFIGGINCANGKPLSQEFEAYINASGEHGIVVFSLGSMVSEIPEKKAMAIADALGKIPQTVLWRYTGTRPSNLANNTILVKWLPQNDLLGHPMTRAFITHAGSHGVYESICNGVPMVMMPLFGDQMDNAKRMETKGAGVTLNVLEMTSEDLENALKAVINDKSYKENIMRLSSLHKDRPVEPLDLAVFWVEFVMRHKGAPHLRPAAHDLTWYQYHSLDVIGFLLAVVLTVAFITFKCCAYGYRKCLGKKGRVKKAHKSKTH
Assay: trifluoperazine N-glucuronidation in human liver microsomes, cocktail, LC-MS/MS
Type: biochemical
Conditions: 0.5 µM trifluoperazine (probe cocktail set A), 5 mM UDPGA, 10 mM MgCl2, alamethicin, pH 7.4, 37 °C, 60 min; read-out: IC50 (μM) / Eudesmin
Some compounds, each annotated with its measured IC50.

COc1ccc([C@H]2OC[C@H]3[C@@H]2CO[C@@H]3c2ccc(OC)c(OC)c2)cc1OC | > 200 µM

Moving on to another compound below.
Data point: `COc1cc([C@H]2OC[C@H]3[C@@H]2CO[C@@H]3c2cc(OC)c(OC)c(OC)c2)cc(OC)c1OC` ; IC50 = > 200 µM
